Item-by-item account of CC50
Tested on: SW48 human colorectal cancer cells (MSI-H cancer cells)
Assay: SW48 cell viability, CellTiter-Glo, 120 hours (Example B)
Details: Homo sapiens, SW48, 120 h, read-out: SW48 pCC50, SW48 cell viability, 120 hours incubation (converted); Table 2
Lab book: enter the figure in µM, no units written.

# COMPOUND, MEASURED PARAMETER, NUMERIC READOUT
data = [
    ("Cc1nc2cc(S(=O)(=O)N(c3ccc([C@H]4CCC[C@@H](C(=O)Nc5ccc(C(F)(F)F)cc5F)[C@@H]4C(=O)O)cc3)C3CC3)ccc2n1C", "CC50", 2),
    ("CN(c1ccc([C@H]2CCC[C@@H](C(=O)Nc3ccc(C(F)(F)F)cc3F)[C@@H]2C(=O)O)cc1)S(=O)(=O)c1cccnc1", "CC50", 3.16),
    ("Cc1nc2cc(S(=O)(=O)N(C)c3ccc([C@@H]4C[C@H](OCC5CCOCC5)C[C@H](C(=O)Nc5ccc(C(F)(F)F)cc5F)[C@H]4C(=O)O)cc3)ccc2n1C (stereo in doubt)", "CC50", 20),
    ("Cc1nc2cc(S(=O)(=O)N(C)c3ccc([C@H]4C[C@@H](N)C[C@@H](C(=O)Nc5ccc(C(F)(F)F)cc5F)[C@@H]4C(=O)O)cc3)ccc2n1C (stereo in doubt)", "CC50", 3.98),
    ("Cc1nc2cc(S(=O)(=O)N(C)c3ccc([C@H]4COC[C@@H](C(=O)Nc5ccc(C(F)(F)F)cc5F)[C@@H]4C(=O)O)cc3)ccc2n1C (racemic)", "CC50", 1.26),
    ("Cc1nc2cc(S(=O)(=O)N(C)c3ccc([C@H]4CCC[C@@H](C(=O)Nc5ccc(C(F)(F)F)cc5F)[C@@H]4C(=O)O)cc3)cc([C@H]3CCCN(C)C3)c2n1C (relative stereo)", "CC50", 0.0794),
    ("O=C(O)[C@@H]1[C@@H](c2ccc(-c3cnsc3)cc2)CCC[C@H]1C(=O)Nc1ccc(C(F)(F)F)cc1F", "CC50", 3.98),
    ("Cc1nc2cc(S(=O)(=O)N(C)c3ccc([C@@H]4CCC[C@H](C(=O)Nc5c(F)cc(C(C)C)cc5F)[C@H]4C(=O)O)cc3)ccc2n1C (single isomer, unassigned)", "CC50", 0.794),
    ("CN(c1ccc([C@H]2CCC[C@@H](C(=O)Nc3ccc(C(F)(F)F)cc3F)[C@@H]2C(=O)O)cc1)S(=O)(=O)c1ccc2c(c1)CCN(C(=O)C(F)(F)F)C2", "CC50", 1.58),
    ("Cc1nc2cc(S(=O)(=O)N(C)c3ccc([C@@H]4C[C@H](OC(F)F)C[C@H](C(=O)Nc5ccc(C(F)(F)F)cc5F)[C@H]4C(=O)O)cc3)ccc2n1C (stereo in doubt)", "CC50", 20),
]

Form: compound = N#Cc1cscc1-c1ccc([C@H]2CCC[C@@H](C(=O)Nc3ccc(C(F)(F)F)cc3F)[C@@H]2C(=O)O)cc1 ; CC50 = 10

---

Biological target: recombinant full-length WRN protein (1-1432) (Homo sapiens)
Construct: recombinant full-length WRN protein (1-1432)
Test: WRN unwinding activity, fluorogenic 384-well assay (Example A)
Assay type: biochemical
Conditions: WRN unwinding activity, 4 hr; Table 2; read-out: 4 hr UNW pIC50 (converted)
MEASURED PARAMETER: log10 IC50 (log10 of the value in nM)
Units before log transform: nM; reported quantity: IC50; transform: log10.

# COMPOUND, MEASURED PARAMETER, NUMERIC READOUT
data = [
    ("O=C(O)[C@@H]1[C@@H](c2ccc(CC3(CO)COC3)cc2)CCC[C@H]1C(=O)Nc1ccc(C(F)(F)F)cc1F", "log10 IC50", 3.20),
    ("CN1CCN(C)c2cc(S(=O)(=O)N(C)c3ccc([C@H]4CCC[C@@H](C(=O)Nc5ccc(C(F)(F)F)cc5F)[C@@H]4C(=O)O)cc3)ccc21", "log10 IC50", 0.60),
    ("Cc1nc2cc(S(=O)(=O)N(C)c3ccc([C@H]4C[C@@H](OC(F)F)C[C@@H](C(=O)Nc5ccc(C(F)(F)F)cc5F)[C@@H]4C(=O)O)cc3)ccc2n1C (stereo in doubt)", "log10 IC50", 0.50),
    ("CN(c1ccc([C@H]2CCC[C@@H](C(=O)Nc3ccc(C(F)(F)F)cc3F)[C@@H]2C(=O)O)cc1)S(=O)(=O)c1ccc(Br)c(O)c1", "log10 IC50", 1.20),
    ("CC(=O)N(C)[C@H]1C[C@H](C(=O)Nc2ccc(C(F)(F)F)cc2F)[C@@H](C(=O)O)[C@H](c2ccc(N(C)S(=O)(=O)c3ccc4c(c3)nc(C)n4C)cc2)C1 (stereo in doubt)", "log10 IC50", 1.50),
    ("Cc1nc2cc(S(=O)(=O)N(C)c3ccc([C@@H]4C[C@H](O[C@@H]5CCOC5)C[C@H](C(=O)Nc5ccc(C(F)(F)F)cc5F)[C@H]4C(=O)O)cc3)ccc2n1C (stereo in doubt)", "log10 IC50", 1.30),
]

The reported log10 IC50 of the compound Cc1nc2cc(S(=O)(=O)N(C)c3ccc([C@@H]4C[C@@H](N5CCC(F)(F)CC5)C[C@H](C(=O)Nc5ccc(C(F)(F)F)cc5F)[C@H]4C(=O)O)cc3)ccc2n1C (relative stereo) was 3.90

The recorded log10 IC50 for O=C(O)[C@@H]1[C@@H](C(=O)Nc2ccc(C(F)(F)F)cc2F)CCC[C@H]1c1ccc(NS(=O)(=O)c2ccc3[nH]cnc3c2)cc1 (single isomer, unassigned) is -0.60

Reported log10 IC50 for Cc1nc2cc(S(=O)(=O)N(C)c3ccc([C@@H]4CCC[C@H](C(=O)Nc5ccc(C(F)(F)F)cn5)[C@H]4C(=O)O)cc3)ccc2n1C (relative stereo) was 0.40

log10 IC50 reported for this compound Cc1nc2cc(S(=O)(=O)N(C)c3ccc([C@H]4CCC[C@@H](COc5ccc(C(F)(F)F)cc5)[C@@H]4C(=O)O)cc3)ccc2n1C : 1.40

---

Below is a list of entries, each paired with its recorded IC50 value.
Target: recombinant full-length WRN protein (1-1432) (Homo sapiens, UniProt Q14191)
Construct: recombinant full-length WRN protein (1-1432)
Sequence (Q14191 whole entry): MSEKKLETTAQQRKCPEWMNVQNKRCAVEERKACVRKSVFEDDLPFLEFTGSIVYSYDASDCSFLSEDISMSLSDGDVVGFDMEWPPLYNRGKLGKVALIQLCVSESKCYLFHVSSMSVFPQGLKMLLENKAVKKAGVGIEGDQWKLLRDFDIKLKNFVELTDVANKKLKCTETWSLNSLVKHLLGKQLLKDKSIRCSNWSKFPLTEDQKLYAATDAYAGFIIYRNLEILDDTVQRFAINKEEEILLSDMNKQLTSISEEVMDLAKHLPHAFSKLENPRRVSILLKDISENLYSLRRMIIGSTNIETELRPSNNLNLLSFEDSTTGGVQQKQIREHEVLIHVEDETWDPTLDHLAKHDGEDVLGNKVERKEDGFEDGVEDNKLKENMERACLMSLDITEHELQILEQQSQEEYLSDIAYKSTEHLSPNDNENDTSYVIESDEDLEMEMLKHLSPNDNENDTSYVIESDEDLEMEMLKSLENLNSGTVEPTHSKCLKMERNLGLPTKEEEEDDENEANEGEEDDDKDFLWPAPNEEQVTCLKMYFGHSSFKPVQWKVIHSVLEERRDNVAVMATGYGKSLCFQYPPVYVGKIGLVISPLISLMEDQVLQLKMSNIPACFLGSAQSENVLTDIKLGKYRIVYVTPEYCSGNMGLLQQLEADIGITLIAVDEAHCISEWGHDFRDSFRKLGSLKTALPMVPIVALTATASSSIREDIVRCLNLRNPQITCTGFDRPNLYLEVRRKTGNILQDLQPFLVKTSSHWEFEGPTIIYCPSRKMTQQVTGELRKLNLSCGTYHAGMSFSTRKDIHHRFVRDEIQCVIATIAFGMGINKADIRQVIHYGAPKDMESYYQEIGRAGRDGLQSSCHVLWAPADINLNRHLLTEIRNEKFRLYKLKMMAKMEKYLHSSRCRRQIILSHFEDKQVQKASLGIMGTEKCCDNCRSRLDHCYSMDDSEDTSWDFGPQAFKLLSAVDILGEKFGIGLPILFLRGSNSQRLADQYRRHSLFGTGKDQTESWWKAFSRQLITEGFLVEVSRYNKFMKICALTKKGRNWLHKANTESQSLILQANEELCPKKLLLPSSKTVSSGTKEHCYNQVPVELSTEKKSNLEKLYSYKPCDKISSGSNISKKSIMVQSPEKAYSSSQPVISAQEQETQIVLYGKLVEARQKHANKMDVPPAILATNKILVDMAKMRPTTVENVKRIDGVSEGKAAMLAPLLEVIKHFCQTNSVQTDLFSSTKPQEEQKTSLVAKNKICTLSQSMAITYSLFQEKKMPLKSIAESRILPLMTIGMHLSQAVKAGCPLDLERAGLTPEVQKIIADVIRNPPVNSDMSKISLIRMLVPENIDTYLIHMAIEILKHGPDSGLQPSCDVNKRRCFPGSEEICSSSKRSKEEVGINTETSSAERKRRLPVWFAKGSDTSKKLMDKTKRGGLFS
Test: WRN unwinding activity, fluorogenic 384-well assay (Example A)
Assay type: biochemical
Conditions: WRN unwinding activity, 4 hr; Table 2; read-out: 4 hr UNW pIC50 (converted)
Dear colleague, please return just the value in nM, with no unit written.

Here is how some molecules turned out for IC50.
# MOLECULE, IC50 [nM]
rows = [
    ("Cc1nc2cc(S(=O)(=O)N(C)c3ccc([C@H]4CCC[C@@H](C(=O)N[C@@H]5C[C@@H]6CC(F)(F)C[C@@H]6C5)[C@@H]4C(=O)O)cc3)ccc2n1C [Example 191]", 398),
    ("Cc1nc2cc(S(=O)(=O)N(C)c3ccc([C@H]4C[C@@H](OCC5CC5)C[C@@H](C(=O)Nc5ccc(C(F)(F)F)cc5F)[C@@H]4C(=O)O)cc3)ccc2n1C (stereo in doubt) [Example 314]", 1.58),
    ("Cc1nc2cc(S(=O)(=O)N(C)c3ccc([C@H]4CCC[C@@H](C(=O)Nc5ccc(C(F)(F)F)cc5F)[C@@H]4C(=O)O)cc3Cl)ccc2n1C [Example 296]", 1.58),
    ("Cc1nc2cc(S(=O)(=O)N(C)c3ccc([C@H]4CCC[C@@H](C(=O)N[C@H]5CC[C@H](C(C)C)CC5)[C@@H]4C(=O)O)cc3)ccc2n1C [Example 180]", 3.98),
]

Okay, next one:
What the record says about Cc1nc2cc(S(=O)(=O)N(C)c3ccc([C@H]4CCC[C@@H](C(=O)N[C@H]5CCCC[C@@H]5C)[C@@H]4C(=O)O)cc3)ccc2n1C [Example 197] : IC50 is 2510

---

Target: recombinant full-length WRN protein (1-1432) (Homo sapiens, UniProt Q14191)
Construct: recombinant full-length WRN protein (1-1432)
Experiment: WRN unwinding activity, fluorogenic 384-well assay (Example A)
Assay type: biochemical
Details: WRN unwinding activity, 4 hr; Table 2; read-out: 4 hr UNW pIC50 (converted)
Counter-ions that a name gives are not always drawn.
MEASURED PARAMETER: IC50
Please answer in the form of a number followed by its unit of measurement.

# COMPOUND, TGT, IC50
rows = [
    ("Cc1nc2cc(S(=O)(=O)N(C)c3ccc([C@H]4CCC[C@@H](C(=O)NC5CCC6(CCCC6)CC5)[C@@H]4C(=O)O)cc3)ccc2n1C [Example 184, formic acid salt]", "recombinant full-length WRN protein (1-1432) (Homo sapiens, UniProt Q14191)", "631 nM"),
]

IC50 for N#Cc1ncc(-c2ccc([C@H]3CCC[C@@H](C(=O)Nc4ccc(C(F)(F)F)cc4F)[C@@H]3C(=O)O)cc2)cn1 [Example 54] is 5.01 nM

Reported IC50 ( Cc1nc2cc(S(=O)(=O)N(C)c3ccc([C@@H]4C[C@H](OCC5(C)COC5)C[C@H](C(=O)Nc5ccc(C(F)(F)F)cc5F)[C@H]4C(=O)O)cc3)ccc2n1C (stereo in doubt) [Example 366] ) = 126 nM
